Ref: ChEMBL document CHEMBL5113531

- MEASUREMENT_PROTOCOL: Hepatotoxicity in […] cells assessed as reduction in cell viability at 10 to 80 uM measured after 24 hrs by CTG- luminescence assay
- Assay type: toxicity, cell-based
- RUN_CONDITIONS: human
READOUT_LABEL: IC50 at 24 h (µM)

> print(dat)
                                   compound  unit.info  value.measured
1  Cc1cccc2sc(NC(=O)CCN3CCN(CC4CCCCC4)CC3)nc12         µM            30.7
2  Cc1cccc2sc(NC(=O)CCN3CCN(C4CCCCC4)CC3)nc12         µM            47.1
3  Cc1cccc2sc(NC(=O)CCN3CCN(CC4CCCO4)CC3)nc12 (racemic)         µM            46.3
